- System: PyIESI-1 RRM domain (Plasmodium yoelii PY17X_0911200 aa 795-956, GST fusion)
- Experiment notes: RBNS R-value (6-mer enrichment in protein-bound RNA vs input library) (ratio); higher = stronger binding preference
- Setup conditions: protein concentration: 250 nM
Whole data set: some 4,100 sequences, median “RBNS R-value (6-mer enrichment in protein-bound RNA vs input library)” near 0.96, cut for the highest 2% near 2.4. For the sample, the highest values were picked, then their nearest neighbours and some sequences at random.
Reported values of RBNS R-value for individual entries
Output: the number by itself.

Examples with answers:
INSERT INTO results (sequence_text, value_reported) VALUES
  ('ACGAAU', 0.896),
  ('CUUGAA', 1.18);

Requested read-out RBNS R-value, target or system PyIESI-1 RRM domain (Plasmodium yoelii PY17X_0911200 aa 795-956, GST fusion), entry UUGAUA 4.42

Next sequence up: UCCCAA 0.972

Next sequence up: GAAUGU 0.999

Next sequence up: AGAUGG 1.49

Next sequence up: GAUGGG 2.54

* * *

- Test system: PyIESI-1 RRM domain (Plasmodium yoelii PY17X_0911200 aa 795-956, GST fusion)
- Experiment notes: RBNS R-value (6-mer enrichment in protein-bound RNA vs input library) (ratio); higher = stronger binding preference
- Setup conditions: protein concentration: 500 nM
Over roughly 4,100 sequences, “RBNS R-value (6-mer enrichment in protein-bound RNA vs input library)” has its median near 0.96; the highest 2% begin near 2.4. This is one part of a sample in which the highest values are shown more often than they occur.
Reported values of RBNS R-value for individual entries

INSERT INTO assay_data (sequence_text, tested_on, metric_name, value_reported) VALUES
  ('UGAUUU', 'PyIESI-1 RRM domain (Plasmodium yoelii PY17X_0911200 aa 795-956, GST fusion)', 'RBNS R-value', 7.06),
  ('GGAUUU', 'PyIESI-1 RRM domain (Plasmodium yoelii PY17X_0911200 aa 795-956, GST fusion)', 'RBNS R-value', 1.1),
  ('UUUUGU', 'PyIESI-1 RRM domain (Plasmodium yoelii PY17X_0911200 aa 795-956, GST fusion)', 'RBNS R-value', 0.945),
  ('AGAUUA', 'PyIESI-1 RRM domain (Plasmodium yoelii PY17X_0911200 aa 795-956, GST fusion)', 'RBNS R-value', 1.16),
  ('AUUUGU', 'PyIESI-1 RRM domain (Plasmodium yoelii PY17X_0911200 aa 795-956, GST fusion)', 'RBNS R-value', 1.18);

Requested read-out RBNS R-value, target or system PyIESI-1 RRM domain (Plasmodium yoelii PY17X_0911200 aa 795-956, GST fusion), entry GCAAGC 0.933

Next sequence up: UUUUGC 1.28

Next sequence up: AUUUGA 2.67

Next sequence up: UUUUGA 2.69

Next sequence up: ACUGCG 1.13

* * *

Reported values of RBNS R-value for individual entries
- Test system: PyIESI-1 RRM domain (Plasmodium yoelii PY17X_0911200 aa 795-956, GST fusion)
- Experiment notes: RBNS R-value (6-mer enrichment in protein-bound RNA vs input library) (ratio); higher = stronger binding preference; the methods of the paper give 50 / 100 / 500 nM protein instead
- Setup conditions: protein concentration: 500 nM
The full ranking holds about 4,100 sequences; the median of “RBNS R-value (6-mer enrichment in protein-bound RNA vs input library)” is about 0.96, and the highest 2% start at about 2.4. For the sample, the highest values were picked, then their nearest neighbours and some sequences at random.
Output: the number by itself.

Examples with answers:
INSERT INTO assay_data (sequence_text, value_reported) VALUES
  ('AUGAAU', 1.35),
  ('AGAUAU', 0.983),
  ('CGAUCU', 1.15),
  ('AGGAUU', 1.04),
  ('AAUGGG', 1.06);

Name the reported RBNS R-value value associated with the sequence GUUGAU 3.81

Next sequence up: UAUGGC 1.37

Next sequence up: CCGGCG 1.09

Next sequence up: UUGACA 1.54

Next sequence up: CCUAGC 0.888

Next sequence up: UUUGAC 1.47

Next sequence up: AGAUAA 1

Each recorded value in this set is attributed to the supplement of paper PMC13392028.
